Each entry below carries its measured MIC, system: Enterococcus faecium L 4001.
Positions of bridges follow the written chain, without caps; N, C: chain ends. Non-standard residues stand in square brackets, D forms with d. Residues, ends and D or L forms follow the SMILES beside them. ξ: configuration not given here. *: point of attachment. Phe(3,5-F2) = N[C@@H](Cc1cc(F)cc(F)c1)C(=O)O; Phe(3-Cl) = N[C@@H](Cc1cccc(Cl)c1)C(=O)O; ξPhe(3,5-F2) = NC(Cc1cc(F)cc(F)c1)C(=O)O; Pro(4R-Me) = C[C@H]1CN[C@H](C(=O)O)C1; Heptenoyl(2E) = CCCC/C=C/C(=O)*; NMeS = CN[C@@H](CO)C(=O)O; NMeA = CN[C@@H](C)C(=O)O; X2 = CCCCC/C=C/C(=O)*; ξPip = O=C(O)C1CCCCN1; X3 = O=C(C=C1CCC1)*

Worked set:
- CCCC/C=C/C(=O)N[C@@H](Cc1cc(F)cc(F)c1)C(=O)N[C@H]1COC(=O)[C@@H]2C[C@@H](C)CN2C(=O)[C@H](C)NC(=O)[C@H](C)N(C)C(=O)[C@@H]2CCCN2C1=O [Example 6] ({Heptenoyl(2E)}-[Phe(3,5-F2)]SP[NMeA]A[Pro(4R-Me)]; ester 2-C): < 0.125 µg/mL
- C[C@@H]1NC(=O)[C@H](C)N(C)C(=O)[C@@H]2CCCN2C(=O)[C@@H](NC(=O)[C@H](Cc2cc(F)cc(F)c2)NC(=O)C=C2CCC2)COC(=O)[C@@H]2CCCN2C1=O [Example 85] (X3-[Phe(3,5-F2)]SP[NMeA]AP; ester 2-C): 4 µg/mL
- CCCCC/C=C/C(=O)N[C@@H](Cc1cccc(Cl)c1)C(=O)N[C@H]1COC(=O)[C@@H]2CCCN2C(=O)[C@H](C)NC(=O)[C@H](C)N(C)C(=O)[C@@H]2CCCN2C1=O [Example 32] (X2-[Phe(3-Cl)]SP[NMeA]AP; ester 2-C): 0.5 µg/mL

Prompt line: Indicate the recorded MIC value for this compound: CCCC/C=C/C(=O)N[C@@H](Cc1cc(F)cc(F)c1)C(=O)N[C@H]1COC(=O)[C@@H]2CCCN2C(=O)[C@H](C)NC(=O)[C@H](C)N(C)C(=O)[C@@H]2CCCN2C1=O [Example 1] ({Heptenoyl(2E)}-[Phe(3,5-F2)]SP[NMeA]AP; ester 2-C)
Response line: < 0.125 µg/mL

Prompt line: Indicate the recorded MIC value for this compound: CCCC/C=C/C(=O)N[C@@H](Cc1cc(F)cc(F)c1)C(=O)N[C@H]1COC(=O)[C@@H]2CCCN2C(=O)[C@H](C)NC(=O)[C@H](CO)N(C)C(=O)[C@@H]2CCCN2C1=O [Example 13] ({Heptenoyl(2E)}-[Phe(3,5-F2)]SP[NMeS]AP; ester 2-C)
Response line: < 0.125 µg/mL

Prompt line: Indicate the recorded MIC value for this compound: CCCC/C=C/C(=O)NC(Cc1cc(F)cc(F)c1)C(=O)N[C@H]1COC(=O)[C@@H]2CCCN2C(=O)CNC(=O)C2CCCCN2C(=O)[C@@H]2CCCN2C1=O (some centres unmarked) [Example 61] ({Heptenoyl(2E)}-[ξPhe(3,5-F2)]SP[ξPip]GP; ester 2-C)
Response line: 32 µg/mL
